assay: Primary qHTS for inhibitors of nuclear receptor binding SET domain protein 2 (NSD2) in an isogenic RCH-ACV NSD2 p.E1099K mutant (9B) (AID 1645876); conditions: RCH-ACV (leukaemia line) NSD2 E1099K (9B) viability, CellTiter-Glo, 72 h; series mostly up to 44.9 µM; further: nearly all actives have a fitted effect of over 70% in size
Inconclusive results are not listed. Calls of active or inactive are those of the source. The call rests on the fitted dose curve; in most records, active means well fitted inhibition curve with a large enough effect; inconclusive means small, poorly fitted or top-dose-only effect; inactive means flat fitted curve, though single readings scatter.
Select the correct class. Options are active, inactive and nothing else.

Just curious, what result did Clc1ccc2nsnc2c1NC1=NCCN1 get here?
inactive

Now try Clc1ccccc1C(c1ccccc1)(c1ccccc1)n1ccnc1 .
active

What about NCCc1cnc[nH]1 ?
inactive

* * *

Here, each record is paired with measured activity, negative = cell killing data.
experiment: Drug repurposing screens with cells derived from glioblastoma tumor samples (AID 1345199); details: GBM patient neurospheres viability, ATP luminescence, 48 h; at 46 µM (top of the series); tumour line A; further: on the % scale 0 is the no-effect control and ±100 the full control effect; nearly all actives have a fitted effect of over 40% in size
Records with an inconclusive call do not appear. The source made the active and inactive calls. The call rests on the fitted dose curve; in most records, active means well fitted inhibition curve with a large enough effect; inconclusive means small, poorly fitted or top-dose-only effect; inactive means flat fitted curve, though single readings scatter.

| Compound | Observed |
| --- | --- |
| CC(C)(Oc1ccc(C2CC2(Cl)Cl)cc1)C(=O)O (centres undefined) | -29.3% (inactive) |

So what does the record say about activity, negative = cell killing for CC[N+](CC)(CC)CCOc1cccc(OCC[N+](CC)(CC)CC)c1OCC[N+](CC)(CC)CC ?
-28% (inactive)

Again, but for CC(C)Cc1ccc(C(C)C(=O)O)cc1 (centres undefined)
-21.1% (inactive)

Next: CC(C(=O)O)c1cccc(C(=O)c2ccccc2)c1 (centres undefined)
-32% (inactive)

* * *

tested on: HaCat; assay: Cytotoxic Profiling of Annotated Libraries Using Quantitative High-Throughput Screening (AID 1296008); conditions: Five cell lines viability, CellTiter-Glo ATP luminescence, 48-72 h; stronger effect = lower value; further: nearly all actives have a fitted effect of over 60% in size; on max response: on the % scale 0 is the no-effect control and ±100 the full control effect
Records with an inconclusive call do not appear.
The reader will find reported max response values listed item by item below.
Only the number, expressed in %, is required.

Need max response of CC(CCc1ccc(O)cc1)NCCc1ccc(O)c(O)c1 (centres undefined) , thanks.
0.349

* * *

// parasite growth, % of control (lower = inhibition) lookup, one value per entry
assay: qHTS profiling of the MIPE4 collection as inhibitors of Plasmodium falciparum (DD2) proliferation (Rep 2) (AID 743346); conditions: P. falciparum Dd2 in erythrocytes, SYBR Green DNA, 72 h; at 28.5 µM (top of the series) unless noted
Just the number in %, nothing appended.

| Smiles entry | Quantity unit | Observed |
| --- | --- | --- |
| CC1(C)O[C@H]2CC(=O)OC[C@]23[C@H]2CC[C@@]4(C)[C@H](c5ccoc5)OC(=O)[C@H]5O[C@]54[C@]2(C)C(=O)C[C@@H]13 | % | 82 |

Turning now to a further record.
Give the measured parasite growth, % of control (lower = inhibition) of CCOC(=O)C(C)(C)Oc1ccc(Cl)cc1 .
78

* * *

system: HEK293; assay: Cytotoxic Profiling of Annotated Libraries Using Quantitative High-Throughput Screening (AID 1296008); conditions: Five cell lines viability, CellTiter-Glo ATP luminescence, 48-72 h; further: nearly all actives have a fitted effect of over 60% in size
Inconclusive results are not listed. The source made the active and inactive calls. Calls follow the shape of the dose curve; as a rule, active = well fitted inhibition curve with a large enough effect; inconclusive = small, poorly fitted or top-dose-only effect; inactive = flat fitted curve, though single readings scatter.
Outcome field: choose from t (active), f (inactive)

Look over these answered cases.
| Smiles entry | Class name |
| --- | --- |
| Clc1ccc2nsnc2c1NC1=NCCN1 | f |
| CC#C[C@]1(O)CC[C@H]2[C@@H]3CCC4=CC(=O)CCC4=C3[C@@H](c3ccc(N(C)C)cc3)C[C@@]21C | t |

Let's switch to this compound now.
Given NCCS(=O)(=O)O , state the outcome it received in this test.
f

* * *

assay: Quantitative High-Throughput drug screen in 47 multiple myeloma cell lines against the NCATS MIPE library collection: OPM1_PLB cell viability assay (AID 1918989); conditions: CellTiter-Glo, 48 h; series mostly up to 45.8 µM; further: nearly all actives have a fitted effect of over 40% in size
Records with an inconclusive call do not appear. The source made the active and inactive calls. Calls follow the shape of the dose curve; as a rule, active = well fitted cell-killing curve with a large enough effect; inconclusive = small, poorly fitted or top-dose-only effect, or effect the other way; inactive = no such curve, though single readings can be large or run the other way.
Mark one answer only. Choices: active, inactive

| Molecule | Class name |
| --- | --- |
| CC(C)(C)C(=O)Oc1ccc(S(=O)(=O)Nc2ccccc2C(=O)NCC(=O)O)cc1 | inactive |

What classification did CCN1CCCC1CNC(=O)c1cc(S(=O)(=O)CC)c(N)cc1OC (stereo not given) end up with in this test?
inactive

Now the molecule CN(C)C(=N)N=C(N)N
inactive

Please give the result for CC#C[C@]1(O)CC[C@H]2[C@@H]3CCC4=CC(=O)CCC4=C3[C@@H](c3ccc(N(C)C)cc3)C[C@@]21C too.
active

Subsequent entry: COc1cc2nc(N3CCN(C(=O)C4COc5ccccc5O4)CC3)nc(N)c2cc1OC (stereo not given)
active

For NCCCCCC(=O)O then?
inactive

* * *

experiment: qHTS of pediatric cancer cell lines to identify multiple opportunities for drug repurposing: Primary screen for LAN-5 cells (AID 1347100); conditions: LAN-5 neuroblastoma viability, CellTiter-Glo luminescence, 48 h; series mostly up to 46 µM;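 further: plate controls were DMSO neutral control for no effect and bortezomib positive control for full effect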
Inconclusive results are not listed. Activity calls are given as the source filed them. Calls follow the shape of the dose curve; as a rule, active = well fitted cell-killing curve with a large enough effect; inconclusive = small, poorly fitted or top-dose-only effect; inactive = no such curve, though single readings can be large or run the other way.
Field 'call' accepts y (active), n (inactive)

Known results for compounds:
| Compound | Class name |
| --- | --- |
| C[C@](N)(Cc1ccc(O)c(O)c1)C(=O)O | n |
| CC1(C)O[C@H]2CC(=O)OC[C@]23[C@H]2CC[C@@]4(C)[C@H](c5ccoc5)OC(=O)[C@H]5O[C@]54[C@]2(C)C(=O)C[C@@H]13 | n |
| NS(=O)(=O)c1cc2c(cc1Cl)NCNS2(=O)=O | n |
| CC(C)NCC(O)COc1ccc(CCOCC2CC2)cc1 (configuration not stated) | n |
| NCCc1cnc[nH]1 | n |

Hello, I am checking results. What call was entered for CC(C)Cc1ccc(C(C)C(=O)O)cc1 (configuration not stated) ?
n

Try this compound too: CC(C(=O)O)c1cccc(C(=O)c2ccccc2)c1 (configuration not stated)
n

Ok, now CN(CCOc1ccc(NS(C)(=O)=O)cc1)CCc1ccc(NS(C)(=O)=O)cc1
n

What would you report for Cc1ccc(C(=O)Nc2ccc(S(=O)(=O)O)c3cc(S(=O)(=O)O)cc(S(=O)(=O)O)c23)cc1NC(=O)c1cccc(NC(=O)Nc2cccc(C(=O)Nc3cc(C(=O)Nc4ccc(S(=O)(=O)O)c5cc(S(=O)(=O)O)cc(S(=O)(=O)O)c45)ccc3C)c2)c1 ?
n

What do you get for COc1ccccc1OCCNCC(O)COc1cccc2[nH]c3ccccc3c12 (configuration not stated) ?
n

Could you do the same for CNCCCC12CCC(c3ccccc31)c1ccccc12 , please?
n

* * *

tested on: AS120; assay: qHTS profiling for inhibitors of Plasmodium falciparum proliferation (AID 504749); further: nearly all actives have a fitted effect of over 60% in size; details: P. falciparum in erythrocytes, SYBR Green DNA, 72 h; series mostly up to 28.7 µM
Results filed as inconclusive are left out. Active and inactive are the calls of the source. The call rests on the fitted dose curve; in most records, active means well fitted inhibition curve with a large enough effect; inconclusive means small, poorly fitted or top-dose-only effect; inactive means flat fitted curve, though single readings scatter.
Select the correct class. Options are active, inactive and nothing else.

Example entries and their recorded answers appear below.
| Compound | Class name |
| --- | --- |
| CC[C@@]1(O)C(=O)OCc2c1cc1n(c2=O)Cc2cc3c(CN(C)C)c(O)ccc3nc2-1 | active |
| CN(C)c1nc(N(C)C)nc(N(C)C)n1 | inactive |
| NC(=O)OCC(COC(N)=O)c1ccccc1 | inactive |
| NS(=O)(=O)c1cc2c(cc1Cl)NCNS2(=O)=O | inactive |
| CC12CC3CC(C)(C1)CC(N)(C3)C2 | inactive |

Please state the recorded outcome for this compound: O=c1c(-c2ccc(O)cc2)coc2cc(O)cc(O)c12
inactive

Would you mind doing CC(C)C(=O)Nc1ccc([N+](=O)[O-])c(C(F)(F)F)c1 as well?
inactive

Please answer likewise for CCOC(=O)c1ncn2c1CN(C)C(=O)c1cc(F)ccc1-2
inactive

Now the compound CC(C)Cc1ccc(C(C)C(=O)O)cc1 (stereo unspecified)
inactive

Then what about the compound O=C(c1ccc(OCCN2CCCCC2)cc1)c1c(-c2ccc(O)cc2)sc2cc(O)ccc12 ?
active

Proceed to CN1CCN2c3ccccc3Cc3ccccc3C2C1 (stereo unspecified)
inactive

Next: O=C(c1ccc(F)cc1)C1CCN(CCn2c(=O)[nH]c3ccccc3c2=O)CC1
inactive

What about this compound? NCCS(=O)(=O)O
inactive

Cool, now NC(=O)NO
inactive

Next compound: CC[N+](CC)(CC)CCOc1cccc(OCC[N+](CC)(CC)CC)c1OCC[N+](CC)(CC)CC
inactive

Then Cn1c(=O)c2[nH]cnc2n(C)c1=O ?
inactive

* * *

system: CP291; experiment: qHTS profiling for inhibitors of Plasmodium falciparum proliferation (AID 504749); further: nearly all actives have a fitted effect of over 60% in size; conditions: P. falciparum in erythrocytes, SYBR Green DNA, 72 h; series mostly up to 28.7 µM
Records with an inconclusive call do not appear. Activity calls are given as the source filed them. Calls follow the shape of the dose curve; as a rule, active = well fitted inhibition curve with a large enough effect; inconclusive = small, poorly fitted or top-dose-only effect; inactive = flat fitted curve, though single readings scatter.
The categories you may choose from are y (active), n (inactive)

Observe how each entry below is paired with its result.
| Compound | Class name |
| --- | --- |
| OCCN1CCN(CCCN2c3ccccc3Sc3ccc(C(F)(F)F)cc32)CC1 | y |
| Nc1nc2c(ncn2COC(CO)CO)c(=O)[nH]1 | n |
| NS(=O)(=O)c1cc2c(cc1Cl)NCNS2(=O)=O | n |
| COc1ccccc1N1CCN(CC(O)COc2cccc3ccccc23)CC1 (stereo not given) | n |

Kindly review the next compound as well.
Outcome? CC(C)NCC(O)COc1ccc(CCOCC2CC2)cc1 (stereo not given)
n
